Give measured AC50 for each item. Keep answers brief.
test system: HTT mRNA; experiment: Splicing RT-qPCR assay, canonical (CJ) and alternative (AJ) junction mRNA, K562 cells; format: cell-based; conditions: Homo sapiens, K562.3 cells, 24 hours, read-out: HTT AJ (AC50, increase in AJ mRNA)
Structures can show the parent of a compound that is named as a salt.

Field: example entries. Status: answers known.
# compound, reported measurement
records = [
    ("Cc1cn2cc(C(=O)Nc3ccc(N4CCNCC4)c4cn[nH]c34)cc(F)c2n1", "> 10 µM"),
    ("Cc1cn2cc(NC(=O)c3ccc(N4CCNC(C(F)(F)F)C4)c4cn(C)nc34)cc(F)c2n1 (stereo not drawn)", "> 10 µM"),
    ("CCNC1CCN(c2ccc(C(=O)Nc3cc4cn(C)nc4cc3O)c3[nH]ccc23)CC1", "> 10 µM"),
    ("Cc1nc2c(F)cc(NC(=O)c3ccc(N4CCC(NC5CC5)CC4)c4cn(C)nc34)cn2c1C", "> 10 µM"),
    ("CCN[C@H]1CCN(c2cc(OC)c(C(=O)Nc3cc(F)c4nc(C)cn4c3)c3nn(C)cc23)C1", "> 10 µM"),
    ("CN[C@H]1CCN(c2c(OC)cc(C(=O)Nc3cc(F)c4nc(C)cn4c3)c3nn(C)cc23)C1", "> 10 µM"),
]

Please state, for each entry, its recorded AC50.
1. CCNC1CCN(c2ccc(C(=O)Nc3cn4cc(C)nc4c(F)c3OC)c3[nH]ncc23)CC1
2. CN[C@@H]1CCN(c2ccc(C(=O)Nc3cc(F)c4nn(C)cc4c3)c3nn(C)cc23)C1
3. CCNC1CCN(c2cc(F)c(C(=O)Nc3cn4cc(C)nc4c(F)c3OC)c3[nH]ncc23)CC1
4. CCNC1CCN(c2ccc(C(=O)Nc3cn4cc(C)nc4c(F)c3OC)c3[nH]ccc23)CC1
5. CN[C@@H]1CN(c2ccc(C(=O)Nc3cc(F)c4nc(C)cn4c3)c3nn(C)cc23)C[C@@H]1C
6. Cc1cn2cc(NC(=O)c3ccc(N4CCC5NCCC5C4)c4cn(C)nc34)cc(F)c2n1 (stereo not drawn) [Compound 169, 2,2,2-trifluoroacetate]
7. CCNC1CCN(c2ccc(C(=O)Nc3cc(OC)c4nc(C)cn4c3)c3nn(C)cc23)CC1

1. 1 to 10 µM
2. 1 to 10 µM
3. 1 to 10 µM
4. > 10 µM
5. > 10 µM
6. 1 to 10 µM
7. 1 to 10 µM

Give AC50 for all compounds that follow.
1. COc1cc(N2CCNCC2)c2cn(C)nc2c1C(=O)Nc1cc(F)c2nc(C)cn2c1
2. Cc1cn2cc(NC(=O)c3c(O)cc(N4CC[C@@H](NC5CC5)C4)c4cn(C)nc34)cc(F)c2n1
3. CCNC1CCN(c2ccc(C(=O)Nc3cc(F)c4nc(CC)cn4c3)c3nn(C)cc23)CC1
4. COc1nc2c(C(=O)Nc3cc(F)c4nc(C)cn4c3)ccc(N3CCC(N)CC3)c2s1
5. CCNC1CCN(c2cc(F)c(C(=O)Nc3cc(F)c4nc(C)cn4c3)c3[nH]ncc23)CC1
6. Cc1cn2cc(NC(=O)c3ccc(N4C[C@@H](C)N[C@@H](C)C4)c4nnn(C)c34)cc(F)c2n1
7. COCCN[C@@H]1CCN(c2cc(O)c(C(=O)Nc3cc(F)c4nc(C)cn4c3)c3nn(C)cc23)C1
8. CCNC1CCN(c2cc(F)c(C(=O)Nc3cc(F)c4nc(C)cn4c3)c3ccoc23)CC1

1: > 10 µM; 2: > 10 µM; 3: 1 to 10 µM; 4: 0.1 to 1 µM; 5: 1 to 10 µM; 6: > 10 µM; 7: > 10 µM; 8: > 10 µM

List the reported AC50 of each compound below.
1. Cc1cn2cc(NC(=O)c3ccc(N4CC[C@@H](NCC5COC5)C4)c4cn(C)nc34)cc(F)c2n1
2. Cc1cn2cc(NC(=O)c3ccc(N4CC[C@@H]5CNCC[C@@H]54)c4cn(C)nc34)cc(F)c2n1 (stereo in doubt) [Compound 101, hydrochloride]
3. CCNC1CCN(c2ccc(C(=O)Nc3cc(F)c4nc(C)cn4c3)c3nnn(C)c23)CC1
4. CCN[C@H]1CCN(c2cc(O)c(C(=O)Nc3cc(F)c4nc(C)cn4c3)c3nn(C)cc23)C1
5. CCN[C@@H]1CCN(c2cc(O)c(C(=O)Nc3cc(F)c4nc(C)cn4c3)c3nn(C)cc23)C1
6. COCCN[C@H]1CCN(c2ccc(C(=O)Nc3cc(F)c4nc(C)cn4c3)c3nn(C)cc23)C1

1: 1 to 10 µM; 2: 1 to 10 µM; 3: > 10 µM; 4: 1 to 10 µM; 5: > 10 µM; 6: > 10 µM

Provide the reported AC50 of each entry below, same order.
1. Cc1cn2cc(NC(=O)c3ccc(N4CCC(NC5CC5)CC4)c4ccoc34)cc(F)c2n1
2. Cc1cn2cc(NC(=O)c3ccc(N4CCNCC4)c4nonc34)cc(F)c2n1
3. Cc1cn2cc(NC(=O)c3ccc(N4CC[C@H](NCC56CC(CO5)C6)C4)c4cn(C)nc34)cc(F)c2n1

1. 1 to 10 µM
2. 1 to 10 µM
3. > 10 µM

Reference source: patent US20260285853A1
